I'd be grateful if you could share measured viability for these entries.
assay: growth suppression of beta-catenin knockout HCT116, pilot screen, human colon tumor cells (AID 823); conditions: CellTiter-Glo, 60 h, at 10 µM, active compounds read low;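 further: 0% = wells killed by 20 µM Hyamine and 100% = untreated DMSO cell wells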
Results filed as inconclusive are left out.
Report only the number, with the unit % understood.

// recorded viability for CCC(=O)c1ccc(N2CCN(C(=O)COc3ccc(F)cc3)CC2)c(F)c1 : 73.7

// recorded viability for COc1cccc(-c2nc(CS(=O)CC(=O)O)c(C)o2)c1 (stereo unspecified) : 99.9

// recorded viability for COc1ccc(NC(=O)Nc2nnc(N3CCCCC3C)s2)cc1OC (stereo unspecified) : 99.2

// recorded viability for O=C(Cn1nc(Cc2cccnc2)c2ccccc2c1=O)N1CCN(C(=O)c2ccco2)CC1 : 104

// recorded viability for Cn1ccnc1SCC(=O)Nc1cccc(C(F)(F)F)c1 : 96.4

// recorded viability for CC(C)(C)c1ccc(-c2nnc3sc(-c4ccccn4)nn23)cc1 : 100

// recorded viability for CC1CCC(NC(=O)c2cc3c(=O)n(C)c4ccccc4c3n2C)CC1 (stereo unspecified) : 76.8

// recorded viability for Cc1c(C(=O)NCC2COc3ccccc3O2)oc2ccc(S(=O)(=O)N3CCOCC3)cc12 (stereo unspecified) : 42.2

// recorded viability for COc1ccc(S(=O)(=O)Cc2ccc(C(=O)N3CCc4ccccc4C3)o2)cc1 : 92.7

// recorded viability for CCOC(=O)c1c(NC(=O)C2CCCN2S(=O)(=O)c2cccc3nsnc23)sc(C)c1C (stereo unspecified) : 74

// recorded viability for O=C(CCc1ccccc1)N1CCN(CCO)CC1 : 101
